Cited source for all entries: patent US4808605A

target: ^3 H-desmethoxyverapamil binding, partially-cleaned membranes of guinea pig heart (Cavia porcellus, UniProt O35505)
Sequence (O35505 whole entry): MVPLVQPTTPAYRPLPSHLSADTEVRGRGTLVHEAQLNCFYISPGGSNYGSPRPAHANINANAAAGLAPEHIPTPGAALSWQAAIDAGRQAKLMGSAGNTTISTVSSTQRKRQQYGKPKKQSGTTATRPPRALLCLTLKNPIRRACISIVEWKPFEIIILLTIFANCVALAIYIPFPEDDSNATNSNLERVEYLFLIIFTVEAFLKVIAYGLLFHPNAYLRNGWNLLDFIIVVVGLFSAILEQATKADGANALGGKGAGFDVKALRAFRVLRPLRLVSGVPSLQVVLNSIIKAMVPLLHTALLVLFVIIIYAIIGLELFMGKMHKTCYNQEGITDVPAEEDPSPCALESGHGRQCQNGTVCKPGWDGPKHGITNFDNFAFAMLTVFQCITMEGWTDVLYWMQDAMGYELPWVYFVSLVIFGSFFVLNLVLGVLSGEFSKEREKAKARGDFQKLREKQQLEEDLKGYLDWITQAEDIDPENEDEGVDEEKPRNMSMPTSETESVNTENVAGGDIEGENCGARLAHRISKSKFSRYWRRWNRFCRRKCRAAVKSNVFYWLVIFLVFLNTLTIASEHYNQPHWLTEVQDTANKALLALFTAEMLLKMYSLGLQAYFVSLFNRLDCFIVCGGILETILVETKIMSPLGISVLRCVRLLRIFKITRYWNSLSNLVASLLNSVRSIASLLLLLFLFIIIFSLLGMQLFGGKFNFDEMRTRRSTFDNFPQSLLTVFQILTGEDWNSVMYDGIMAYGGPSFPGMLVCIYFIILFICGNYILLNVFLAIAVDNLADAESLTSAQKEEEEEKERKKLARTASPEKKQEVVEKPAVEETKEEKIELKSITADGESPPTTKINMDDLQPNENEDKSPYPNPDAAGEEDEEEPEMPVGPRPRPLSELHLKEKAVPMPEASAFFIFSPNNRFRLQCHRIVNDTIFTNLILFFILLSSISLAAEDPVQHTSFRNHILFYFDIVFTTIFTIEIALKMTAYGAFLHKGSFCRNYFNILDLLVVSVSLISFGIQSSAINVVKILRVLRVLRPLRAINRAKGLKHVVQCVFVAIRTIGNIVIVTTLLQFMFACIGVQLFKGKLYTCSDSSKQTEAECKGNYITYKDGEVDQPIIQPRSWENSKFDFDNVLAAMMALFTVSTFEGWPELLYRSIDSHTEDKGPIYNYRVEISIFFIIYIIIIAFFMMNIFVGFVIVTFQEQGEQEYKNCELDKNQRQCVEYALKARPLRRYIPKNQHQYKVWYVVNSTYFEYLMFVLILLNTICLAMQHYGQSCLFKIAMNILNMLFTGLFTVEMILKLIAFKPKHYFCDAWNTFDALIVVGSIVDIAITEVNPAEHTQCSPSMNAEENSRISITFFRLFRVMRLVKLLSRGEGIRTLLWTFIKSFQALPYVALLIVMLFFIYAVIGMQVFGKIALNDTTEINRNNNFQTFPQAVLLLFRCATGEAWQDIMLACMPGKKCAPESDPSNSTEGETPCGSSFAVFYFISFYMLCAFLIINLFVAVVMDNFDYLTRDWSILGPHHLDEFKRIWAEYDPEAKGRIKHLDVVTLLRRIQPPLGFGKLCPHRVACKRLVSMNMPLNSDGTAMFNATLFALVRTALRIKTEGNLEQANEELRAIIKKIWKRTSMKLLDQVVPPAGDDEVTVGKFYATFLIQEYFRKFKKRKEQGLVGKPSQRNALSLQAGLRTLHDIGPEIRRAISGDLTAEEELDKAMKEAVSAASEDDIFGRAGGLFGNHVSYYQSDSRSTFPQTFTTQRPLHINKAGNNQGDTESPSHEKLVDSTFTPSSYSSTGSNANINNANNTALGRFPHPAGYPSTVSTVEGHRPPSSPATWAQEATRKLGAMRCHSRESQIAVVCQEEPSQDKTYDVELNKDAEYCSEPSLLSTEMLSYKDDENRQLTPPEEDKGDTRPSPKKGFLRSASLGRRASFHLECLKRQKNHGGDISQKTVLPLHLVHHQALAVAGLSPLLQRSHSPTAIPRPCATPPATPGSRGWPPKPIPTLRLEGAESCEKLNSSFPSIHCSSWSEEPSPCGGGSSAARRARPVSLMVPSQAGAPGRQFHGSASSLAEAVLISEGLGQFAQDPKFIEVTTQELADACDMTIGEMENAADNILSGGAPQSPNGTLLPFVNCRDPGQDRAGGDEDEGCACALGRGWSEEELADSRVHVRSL
Criterion: IC50 strictly under 200 nM. Met: Y. Not met: N.

**Q:** Confirm or reject: IC50 of CCCCNC(=O)O[C@]1(CCN(C)CCCCCc2nc3ccccc3n2C)CCc2cc(F)ccc2[C@@H]1C(C)C lies strictly below 200 nM
**A:** N

**Q:** Say whether its IC50 is strictly beneath 200 nM. Entry: COCC(=O)O[C@]1(CCN(C)CCCCCc2nc3ccccc3s2)CCc2cc(F)ccc2[C@@H]1C(C)C
**A:** Y

**Q:** Below 200 nM on IC50? Entry COCC(=O)O[C@]1(CCN(C)CCCc2nc(-c3ccccc3)c(-c3ccccc3)n2C)CCc2cc(F)ccc2[C@@H]1C(C)C
**A:** Y

**Q:** Check if IC50 falls below 200 nM for CCCCCCCCCCCCn1c(CCCCCCCN(C)CC[C@@]2(OC(=O)COC)CCc3cc(F)ccc3[C@@H]2C(C)C)nc2ccccc21 .
**A:** Y

**Q:** I'd appreciate it if you could check whether COCC(=O)O[C@]1(CCN(C)CCCCCCn2c(=O)[nH]c3ccccc32)CCc2cc(F)ccc2[C@@H]1C(C)C has IC50 smaller than 200 nM.
**A:** Y

**Q:** Given CC(C)[C@H]1c2ccc(F)cc2CC[C@]1(O)CCN(C)CCCCCCCc1nc2ccccc2[nH]1 , is recorded IC50 strictly lower than 200 nM?
**A:** N

**Q:** Strictly below 200 nM in IC50? COCC(=O)O[C@]1(CCN(C)Cc2ccc(Cc3nc4ccccc4[nH]3)cc2)CCc2cc(F)ccc2[C@@H]1C(C)C
**A:** Y

**Q:** Decide: IC50 of COCC(=O)O[C@]1(CCN(C)CCCc2nc3ccccc3[nH]2)CCc2cc(F)ccc2[C@@H]1C(C)C strictly below 200 nM?
**A:** Y

**Q:** Is IC50 of COCC(=O)O[C@]1(CC[N+](C)([O-])CCCc2nc3ccccc3[nH]2)CCc2cc(F)ccc2[C@@H]1C(C)C (stereo partly drawn) strictly below 200 nM?
**A:** N
